- Measurement Target: MDM2_(H. sapiens) SWIB domain (human (Homo sapiens))
- Test Summary: stopped-flow fluorescence kinetics; 10°C, 20 mM sodium phosphate pH 7.4, 150 mM NaCl, 1 mM TCEP; Trp23 emission; MDM2 constant at 0.5–2 μM, p53TAD varied 1–10 μM for k on; k off from displacement of the 1 μM:1 μM complex by 10–20 μM dansylated human p53TAD peptide; K D = k off/k on
- Condition Context: both partners purified
Ends that are not written are not given here.
Measure: Kd (µM)
Please reply with the bare figure in µM and do not write the unit itself.

Data request: What does the record list as Kd for DSQETFAELWEKN (not fully specified (N-terminus); also: acetylated, site not given here) [p53TAD_(D. rerio)^insertT18] ?
Data returned: 4.9
